Molecular target: T1, human CCR8 (human, UniProt P51685 1-355)
T1 construct: Native CCR8 on human PBMC (CCR8+ CD3+ or CCR8+ CD4+ lymphocytes); also called chemokine (C-C motif) receptor 8
T1 sequence (P51685 whole entry): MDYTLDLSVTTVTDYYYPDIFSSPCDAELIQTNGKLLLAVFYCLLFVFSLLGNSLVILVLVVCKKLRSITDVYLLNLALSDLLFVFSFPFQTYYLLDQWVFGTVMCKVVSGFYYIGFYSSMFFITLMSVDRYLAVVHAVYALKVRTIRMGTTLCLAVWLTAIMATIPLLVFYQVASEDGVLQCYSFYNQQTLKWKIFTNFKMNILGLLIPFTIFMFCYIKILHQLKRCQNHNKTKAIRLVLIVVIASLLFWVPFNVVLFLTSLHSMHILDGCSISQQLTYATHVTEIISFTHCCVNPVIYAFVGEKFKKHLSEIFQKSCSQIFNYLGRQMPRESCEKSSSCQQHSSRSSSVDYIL
Experiment: flow blocking, PBMC CCR8+CD4+; competitor PE-AB14
Measured property: % Blocking (%)
Kindly answer with a numeric value in %, unit omitted.

>>> experimental_value("AB10 (antibody, V domains shown, Hybridoma monoclonal; also called antibody 10; clone 10) VH: EVQLVETGGGLVQPKGSLKLSCAVSGFTFKTNAMNWVRQAPGKGLEWVARIRSKSNKYATYYADSVKDRFTISRDDSQSMLYLQMNNLKTEDTAMYYCVRGSEMGYYYAMDYWGQGTSVTVSS VL: DIVMTQAAPSVPVTPGESVSISCRSSKSLLHSNGNTYLYWFLQRPGQSPQLLIYRMSNLASGVPDRFSGSGSGTAFTLRISRVEAEDVGVYYCMQHLEYPFTFGGGTKLEIK")
89.2

Consider now this further binder.
Query: Form field: reported % Blocking of AB3 (antibody, V domains shown, Hybridoma monoclonal; also called antibody 3; clone 3) VH: QVQLKESGPGLVKPSETLSLTCTVSGFSLTSYHISWVRQPPGKGLEWMGVIWGDGKTTYNSALKSRLSISRDTSKSQVFLKMNSLKTEDTATYYCARGGDSGFAYWGQGTLVTVSS VL: DIQMTQSPASLSASLEEIVTITCQASQDIGNWLSWYQQKPGKSPQLLIYGTTNLADGVPSRFSGSRSGTQYSLKISRLQVEDIGIYYCLQAYSVPLTFGSGTKLEIK
Result: -12.3

Data origin, for the record: patent US20240360228A1
